These data points were gathered from patent US20260265252A1.

Below, each of the compounds is paired with its reported total water uptake value.
Assay: Dynamic vapor sorption (DVS) water uptake
Type: physicochemical
Conditions: DVS, moles of water
Structures can show the parent of a compound that is named as a salt.

Examples with their reported total water uptake follow.
COMPOUND: O=C1C2=C(CCN(Cc3ccccc3)C2)N2CCN=C2N1Cc1ccc(F)cc1F [Compound I Besylate Form A]
total water uptake: < 0.1 mol
//
COMPOUND: O=C1C2=C(CCN(Cc3ccccc3)C2)N2CCN=C2N1Cc1ccc(F)cc1F [Compound I Form 2]
total water uptake: ~ 0.7 moles
//
COMPOUND: O=C1C2=C(CCN(Cc3ccccc3)C2)N2CCN=C2N1Cc1ccc(F)cc1F [Compound I Form 1]
total water uptake: ~ 2.2 moles

stdin: Kindly indicate its recorded total water uptake. Item: O=C1C2=C(CCN(Cc3ccccc3)C2)N2CCN=C2N1Cc1ccc(F)cc1F [Compound I Fumarate Form A]
stdout: 0.1 mol
